test system: SNB-19 CNS; experiment: NCI tumour cell line growth inhibition, 48 h
Recorded measurements of TGI, one per entry
Experimental Endpoint: TGI

[[record]]
smiles_data = "CCCN(CCC)C1=Nc2ccccc2-n2cnnc2C1"
assayed_target = "SNB-19 CNS"
meas_value = "> 100 µM"

[[record]]
smiles_data = "CNC(=O)NS(=O)(=O)c1ccc(C)cc1"
assayed_target = "SNB-19 CNS"
meas_value = "> 100 µM"

[[record]]
smiles_data = "Cc1cc(Cl)cc(Cc2cc(Cl)cc(C)c2O)c1O"
assayed_target = "SNB-19 CNS"
meas_value = "16.8 µM"

[[record]]
smiles_data = "Cc1cccc2c1c(=O)c1c(O)cc(O)cc1n2C"
assayed_target = "SNB-19 CNS"
meas_value = "> 100 µM"

[[record]]
smiles_data = "CN(C)CCNC(=O)NC[C@H]1CC[C@@H]2[C@H](O1)c1cc(C(F)(F)F)ccc1N[C@H]2c1ccccc1"
assayed_target = "SNB-19 CNS"
meas_value = "> 100 µM"

[[record]]
smiles_data = "C/C(=N/Nc1nc(C)cc(=O)[nH]1)C(=O)O"
assayed_target = "SNB-19 CNS"
meas_value = "> 100 µM"

[[record]]
smiles_data = "COc1cc(C=O)cc(O)c1O"
assayed_target = "SNB-19 CNS"
meas_value = "> 100 µM"

[[record]]
smiles_data = "c1ccc([P+](CCCCCC[P+](c2ccccc2)(c2ccccc2)c2ccccc2)(c2ccccc2)c2ccccc2)cc1"
assayed_target = "SNB-19 CNS"
meas_value = "> 100 µM"

[[record]]
smiles_data = "O=c1c(Cl)cc2nc3ccccc3sc-2c1Cl"
assayed_target = "SNB-19 CNS"
meas_value = "32.9 µM"

[[record]]
smiles_data = "COC1=CC(=O)c2nc(Cl)ccc2C1=O"
assayed_target = "SNB-19 CNS"
meas_value = "28 µM"

[[record]]
smiles_data = "CCOC(=O)C(=O)Nc1ccccc1C(C)C"
assayed_target = "SNB-19 CNS"
meas_value = "> 100 µM"

[[record]]
smiles_data = "CCN(CC)CCn1c2ccccc2c(=O)c2c(OC)ccc(OC)c21"
assayed_target = "SNB-19 CNS"
meas_value = "> 100 µM"

[[record]]
smiles_data = "COc1cccc(Nc2nccc(-c3cnn4ncccc34)n2)c1"
assayed_target = "SNB-19 CNS"
meas_value = "> 25 µM"

[[record]]
smiles_data = "COC(=O)C1=NN2c3ccccc3CN([C@@H](C)c3ccccc3)C(=O)[C@@H]2[C@H]1c1ccccc1"
assayed_target = "SNB-19 CNS"
meas_value = "> 100 µM"

[[record]]
smiles_data = "O=C(O[C@H]1CCN2C[C@H]3C[C@H](CN4C(=O)CCC[C@H]34)[C@@H]2C1)c1ccc(O)cc1"
assayed_target = "SNB-19 CNS"
meas_value = "> 100 µM"

[[record]]
smiles_data = "O=P(O)(CN1CCN(CP(=O)(O)c2ccccc2)CCN(CP(=O)(O)c2ccccc2)CC1)c1ccccc1"
assayed_target = "SNB-19 CNS"
meas_value = "> 100 µM"

[[record]]
smiles_data = "C/C(=N\\NC(=O)CC(=O)N(C(=O)c1ccc(Cl)cc1)c1ccc(C)cc1)c1ccccc1O"
assayed_target = "SNB-19 CNS"
meas_value = "> 100 µM"


---

Recorded measurements of GI50, one per entry
tested on: T-47D breast; assay: NCI tumour cell line growth inhibition, 48 h
Experimental Endpoint: GI50

[[record]]
molecule = "Cc1cc(=O)oc2cc(OC/C=C3\\CCC(=O)O3)ccc12"
meas_value = "14.3 µM"

[[record]]
molecule = "Cc1ccc(S(=O)(=O)N2CCc3ccc(O)c4c3C2Cc2ccc3c(c2-4)OCO3)cc1 (centres undefined)"
meas_value = "0.968 µM"

[[record]]
molecule = "COc1cc2c(cc1C)NC(=O)/C2=C\\c1c[nH]c2ccccc12"
meas_value = "13.2 µM"

[[record]]
molecule = "Nc1c(F)cc(-c2nc3cc(F)ccc3[se]2)cc1Br"
meas_value = "0.0578 µM"


---

test system: MALME-3M melanoma; assay: NCI tumour cell line growth inhibition, 48 h
Recorded measurements of TGI, one per entry
Experimental Endpoint: TGI (µM)

[[record]]
molecule = "CCN(CC)CCNc1ccc2nc(C)n3c4ccc(O)cc4c(=O)c1c23"
assayed_target = "MALME-3M melanoma"
experimental_endpoint = "TGI"
op = "="
meas_value = 16.4

[[record]]
molecule = "CCCCCCCC(=O)[O][Hg][CH2]C1COC([CH2][Hg][O]C(=O)CCCCCCC)CO1 (configuration not stated)"
assayed_target = "MALME-3M melanoma"
experimental_endpoint = "TGI"
op = "="
meas_value = 11.6

[[record]]
molecule = "O=C1C2C3C=CC(C2C(=O)N1CN1CCSCC1)C1C2C(=O)N(CN4CCSCC4)C(=O)C2C31 (configuration not stated)"
assayed_target = "MALME-3M melanoma"
experimental_endpoint = "TGI"
op = ">"
meas_value = 100

[[record]]
molecule = "C/C(=N/N=C(N)N)c1ccc(NC(=O)Nc2ccc(/C(C)=N/N=C(N)N)cc2)cc1"
assayed_target = "MALME-3M melanoma"
experimental_endpoint = "TGI"
op = "="
meas_value = 46.9

[[record]]
molecule = "CCOC(=O)C(Cc1ccc(N(CCCl)CCCl)cc1)NC(=O)CCCN1C(=O)CN=C(c2ccccc2)c2cc(Cl)ccc21 (configuration not stated)"
assayed_target = "MALME-3M melanoma"
experimental_endpoint = "TGI"
op = "="
meas_value = 7.71

[[record]]
molecule = "CCOC(=O)C(=O)NC12CC3CC(CC(C3)C1)C2"
assayed_target = "MALME-3M melanoma"
experimental_endpoint = "TGI"
op = ">"
meas_value = 100

[[record]]
molecule = "CCN(Cc1ccc(F)cc1)c1ccc(CO)c(OC)c1"
assayed_target = "MALME-3M melanoma"
experimental_endpoint = "TGI"
op = "="
meas_value = 14.3

[[record]]
molecule = "CCOC(=O)CNc1nnnn1C1OC(CO)C(O)C1O (configuration not stated)"
assayed_target = "MALME-3M melanoma"
experimental_endpoint = "TGI"
op = ">"
meas_value = 100

[[record]]
molecule = "CC(O)[C@@]1(c2ccccc2)CC2(CCN(C)CC2)O[C@H]1C (some centres not stated)"
assayed_target = "MALME-3M melanoma"
experimental_endpoint = "TGI"
op = ">"
meas_value = 100

[[record]]
molecule = "COC1=CC(=O)C2=C(C[C@@]3(C)C(=C2)C(CO)=CC[C@H]3O)C1=O"
assayed_target = "MALME-3M melanoma"
experimental_endpoint = "TGI"
op = ">"
meas_value = 100

[[record]]
molecule = "O=C1c2ccccc2C(=O)N1CC(CN1C(=O)c2ccccc2C1=O)(C(=O)OCc1ccccc1)C(=O)OCc1ccccc1"
assayed_target = "MALME-3M melanoma"
experimental_endpoint = "TGI"
op = ">"
meas_value = 100

[[record]]
molecule = "COc1c2c(cc3c1C(=O)Cc1ccc4c(c1CN(C)CC3)OCO4)OCO2"
assayed_target = "MALME-3M melanoma"
experimental_endpoint = "TGI"
op = ">"
meas_value = 100


---

Recorded measurements of TGI, one per entry
test system: SK-MEL-2 melanoma; experiment: NCI tumour cell line growth inhibition, 48 h
Experimental Endpoint: TGI

[[record]]
compound = "CCCC(=O)NC(Nc1ccc(S(=O)(=O)Nc2ccc(OC)nn2)cc1)(C(F)(F)F)C(F)(F)F"
assayed_target = "SK-MEL-2 melanoma"
meas_value = "> 100 µM"

[[record]]
compound = "COC(=O)C1(C)NCCc2c1[nH]c1ccccc21 (stereo not given)"
assayed_target = "SK-MEL-2 melanoma"
meas_value = "> 100 µM"

[[record]]
compound = "O=c1c(Cl)cc2nc3ccccc3sc-2c1Cl"
assayed_target = "SK-MEL-2 melanoma"
meas_value = "27.1 µM"

[[record]]
compound = "Cn1c2ccccc2c2c(=O)n(CCCC(=O)OC(=NC3CCCCC3)NC3CCCCC3)c3c(-c4ccccc4)nnn3c21"
assayed_target = "SK-MEL-2 melanoma"
meas_value = "> 100 µM"

[[record]]
compound = "CC[C@H](C)[C@H](NC(=O)[C@@]1(O)[C@H](O)[C@]2(CC)C=CCN3CC[C@@]4(c5cc(Br)c(OC)cc5N(C)[C@@H]14)[C@@H]32)C(=O)OC"
assayed_target = "SK-MEL-2 melanoma"
meas_value = "> 100 µM"

[[record]]
compound = "O=Nc1c(O)cc(Nc2cccnc2)c2ccccc12"
assayed_target = "SK-MEL-2 melanoma"
meas_value = "> 100 µM"

[[record]]
compound = "CCOC(=O)c1cccnc1C(OC(C)=O)OC(C)=O"
assayed_target = "SK-MEL-2 melanoma"
meas_value = "> 100 µM"

[[record]]
compound = "CCOC(=O)C1(Br)S(=O)(=O)OCCOS1(=O)=O"
assayed_target = "SK-MEL-2 melanoma"
meas_value = "> 100 µM"

[[record]]
compound = "O=C(/C=C/OC(=O)c1cccc(Cl)c1)c1ccc(Cl)cc1"
assayed_target = "SK-MEL-2 melanoma"
meas_value = "> 100 µM"

[[record]]
compound = "Nc1nc(=S)n(-c2ccc(Cl)cc2)c2nc3ccccc3cc12"
assayed_target = "SK-MEL-2 melanoma"
meas_value = "> 100 µM"

[[record]]
compound = "Clc1c2ccccc2nc2c1[nH]c1ccccc12"
assayed_target = "SK-MEL-2 melanoma"
meas_value = "> 100 µM"

[[record]]
compound = "Cc1cc(Cl)ccc1NC(=O)C(=O)C(C(=O)c1ccccc1)C1OC(=O)c2ccccc21 (stereo not given)"
assayed_target = "SK-MEL-2 melanoma"
meas_value = "> 100 µM"

[[record]]
compound = "CCN(Cc1ccc(F)cc1)c1ccc(CO)c(OC)c1"
assayed_target = "SK-MEL-2 melanoma"
meas_value = "27.7 µM"

[[record]]
compound = "O=[N+]([O-])c1cc2c([N+](=O)[O-])cccc2o1"
assayed_target = "SK-MEL-2 melanoma"
meas_value = "25.4 µM"

[[record]]
compound = "COc1ccc2c(c1)C(=O)c1c-2c(Nc2cccc(C(C)=O)c2)nc2ccccc12"
assayed_target = "SK-MEL-2 melanoma"
meas_value = "53.5 µM"

